TARGET OR TEST SYSTEM: Full length Human HDAC8 (Homo sapiens, UniProt Q9BY41)
Construct: Full length Human HDAC8; HIS (N); host or cells: baculovirus expression system
Sequence (Q9BY41 whole entry): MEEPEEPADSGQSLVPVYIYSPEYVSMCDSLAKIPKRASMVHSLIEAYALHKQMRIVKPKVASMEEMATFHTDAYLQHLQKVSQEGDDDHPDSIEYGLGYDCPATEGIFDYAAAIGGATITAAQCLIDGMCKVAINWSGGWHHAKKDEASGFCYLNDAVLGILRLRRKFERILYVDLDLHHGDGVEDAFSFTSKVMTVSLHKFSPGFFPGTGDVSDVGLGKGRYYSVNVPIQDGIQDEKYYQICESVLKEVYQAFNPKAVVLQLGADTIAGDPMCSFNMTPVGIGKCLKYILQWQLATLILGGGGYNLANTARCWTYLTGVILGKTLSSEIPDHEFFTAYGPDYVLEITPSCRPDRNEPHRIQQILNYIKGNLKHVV
PROTOCOL NOTES: Caliper endpoint assay for HDAC enzymatic activity (HDAC8)
Type: biochemical
EXPERIMENTAL CONTEXT: in vitro enzymatic, 30 min pre-incubation, 1 μM substrate peptide
pIC50: −log10 of the molar value.
Task for the reader: assign each of the following molecules its reported pIC50.

O=C(NO)c1cc(F)c2c(c1)CCN(CC13CCC(CC1)C(=O)N3)C2
5.00 to 6.00

Items follow; give pIC50 for each.
1. CC[C@H]1Cc2c(F)cc(C(=O)NO)cc2CN1CC1COC1 (single isomer, unassigned)
2. CN1Cc2cc(C(=O)NO)cc(F)c2CN1Cc1ccccc1
3. O=C(NO)c1cc(F)c2c(c1)CCN([C@@H]1CCNC3(CCC3)C1)C2 (single isomer, unassigned)
4. O=C(NO)c1cc(F)c2c(c1)CN(C[C@H]1CCCCO1)CC2 (single isomer, unassigned)
5. O=C(NO)c1cc(F)c2c(c1)CCN(CC1CC3(CCNCC3)C1)C2
6. O=C(NO)c1cc(F)c2c(c1)CCN([C@H]1C[C@]3(CCCNC3)C1)C2 (single isomer, unassigned)

1. < 4.00
2. 5.00 to 6.00
3. 5.00 to 6.00
4. 6.00 to 7.00
5. 4.00 to 5.00
6. 4.00 to 5.00

###

TARGET OR TEST SYSTEM: Full length Human HDAC6 (Homo sapiens, UniProt Q9UBN7)
Construct: Full length Human HDAC6; FLAG (C); host or cells: baculovirus expression system
PROTOCOL NOTES: Caliper endpoint assay for HDAC enzymatic activity (HDAC6)
Assay type: biochemical
EXPERIMENTAL CONTEXT: ratio of HDAC8 IC50/HDAC6 IC50
REPORTED ENDPOINT: Selectivity (6 v 8)

Some solved cases for reference:
CN1CC[C@@]2(CC[C@H]2N2CCc3cc(C(=O)NO)cc(F)c3C2)C1 (single isomer, unassigned) [Compound 331]
IV (IV: >100-1000)
O=C(NO)c1cc(F)c2c(c1)CCN([C@H]1CCC3(CCC3)C1)C2 (single isomer, unassigned) [Compound 383]
V (V: >1000)
O=C(NO)c1cc(F)c2c(c1)CCN(C1CC3(CCOCC3)C1)C2 [Compound 179]
V (V: >1000)
CC[C@@H]1Cc2c(F)cc(C(=O)NO)cc2CN1C1CCCCC1 (single isomer, unassigned) [Compound 582]
III (III: >10-100)
O=C(NO)c1cc(F)c2c(c1)CCN(C1CCC13CN(C1CC1)C3)C2 (centres unmarked) [Compound 303]
III (III: >10-100)
O=C(NO)c1cc(F)c2c(c1)CN(CC13CC4CC(CC(C4)O1)C3)CC2 [Compound 213]
III (III: >10-100)
CN1CC2(CCC(N3CCc4cc(C(=O)NO)cc(F)c4C3)C2)C1 (centres unmarked) [Compound 389]
V (V: >1000)

Enter recorded Selectivity (6 v 8) with Full length Human HDAC6 (Homo sapiens, UniProt Q9UBN7) for CC1(C)C[C@@H]2Cc3c(F)cc(C(=O)NO)cc3CN2C1 [Compound 127] here.
IV (IV: >100-1000)

###

TARGET OR TEST SYSTEM: Full length Human HDAC6 (Homo sapiens, UniProt Q9UBN7)
Sequence (Q9UBN7 1-1215): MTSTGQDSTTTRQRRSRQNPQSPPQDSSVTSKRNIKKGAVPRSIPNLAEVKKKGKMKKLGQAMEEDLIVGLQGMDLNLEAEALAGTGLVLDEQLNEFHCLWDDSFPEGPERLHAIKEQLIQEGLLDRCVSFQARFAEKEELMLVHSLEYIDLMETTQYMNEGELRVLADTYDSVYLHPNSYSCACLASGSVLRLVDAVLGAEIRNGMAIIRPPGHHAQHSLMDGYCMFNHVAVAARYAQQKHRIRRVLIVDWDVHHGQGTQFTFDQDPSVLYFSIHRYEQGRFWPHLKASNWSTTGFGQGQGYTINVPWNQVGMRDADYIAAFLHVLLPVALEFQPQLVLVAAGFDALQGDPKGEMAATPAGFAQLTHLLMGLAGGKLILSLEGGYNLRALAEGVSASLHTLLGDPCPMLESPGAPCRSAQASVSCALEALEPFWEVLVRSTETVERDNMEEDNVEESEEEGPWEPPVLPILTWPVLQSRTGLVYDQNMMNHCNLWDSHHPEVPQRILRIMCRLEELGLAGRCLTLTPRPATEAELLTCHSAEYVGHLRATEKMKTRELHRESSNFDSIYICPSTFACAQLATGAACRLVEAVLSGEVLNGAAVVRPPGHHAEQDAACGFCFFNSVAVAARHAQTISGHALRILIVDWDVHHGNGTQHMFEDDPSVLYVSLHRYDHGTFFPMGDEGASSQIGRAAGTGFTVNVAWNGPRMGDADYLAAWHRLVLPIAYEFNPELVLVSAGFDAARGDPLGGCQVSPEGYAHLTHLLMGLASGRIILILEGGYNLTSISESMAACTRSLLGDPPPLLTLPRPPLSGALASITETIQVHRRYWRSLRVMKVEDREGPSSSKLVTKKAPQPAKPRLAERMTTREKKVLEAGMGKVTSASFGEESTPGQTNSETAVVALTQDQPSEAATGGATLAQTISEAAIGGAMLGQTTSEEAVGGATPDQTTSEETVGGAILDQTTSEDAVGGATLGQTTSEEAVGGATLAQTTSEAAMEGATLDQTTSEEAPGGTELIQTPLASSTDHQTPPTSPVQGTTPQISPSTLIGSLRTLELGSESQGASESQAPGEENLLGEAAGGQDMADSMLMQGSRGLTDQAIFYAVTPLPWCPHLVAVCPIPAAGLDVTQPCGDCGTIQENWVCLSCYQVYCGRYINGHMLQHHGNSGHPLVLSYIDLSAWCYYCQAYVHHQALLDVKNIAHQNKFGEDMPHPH
REPORTED ENDPOINT: IC50

Some solved cases for reference:
O=C(NO)c1ccc2c(c1)CCN1CCC[C@H]21 [Compound 148]
1 to 10 µM
CC(=O)N1CC[C@H](N2CCc3cc(C(=O)NO)cc(F)c3C2)CC12CCC2 (single isomer, unassigned) [Compound 441]
0.001 to 0.1 µM
O=C(NO)c1cc(F)c2c(c1)CCN(C1CCC3(CCCC3)CC1)C2 [Compound 193]
0.001 to 0.1 µM

Items follow; give IC50 for each.
1. O=C(NO)c1ccc2c(c1)C[C@@H]1COCCN1C2 [Compound 131]
2. CC[C@H]1Cc2c(F)cc(C(=O)NO)cc2CN1C1CCCCC1 (single isomer, unassigned) [Compound 583]
3. CN1CC[C@@]2(CC[C@@H](N3CCc4cc(C(=O)NO)cc(F)c4C3)C2)C1 (single isomer, unassigned) [Compound 404]
4. O=C(NO)c1cc(F)c2c(c1)CCN(C1CCC3(CCCCC3)CC1)C2 [Compound 182]
5. CN1[C@@H]2CC[C@H]1CC(CN1CCc3cc(C(=O)NO)cc(F)c3C1)C2 (single isomer, unassigned) [Compound 483]
6. O=C(NO)c1cc(F)c2c(c1)CCN([C@H]1C[C@]3(CCCN(C4CC4)C3)C1)C2 (single isomer, unassigned) [Compound 345]
7. CC(=O)N1CCC2(CC1)CC(CN1CCc3cc(C(=O)NO)cc(F)c3C1)C2 [Compound 471]

1: 0.1 to 1 µM; 2: 0.1 to 1 µM; 3: 0.001 to 0.1 µM; 4: 0.001 to 0.1 µM; 5: 0.001 to 0.1 µM; 6: 0.001 to 0.1 µM; 7: 0.001 to 0.1 µM

###

Data export: pIC50 values recorded with Full length Human HDAC8 (Homo sapiens).
pIC50: −log10 of the molar value.

O=C(NO)c1cc(F)c2c(c1)CCN(C1CC3(CCCC3)C1)C2 [Compound 183]
< 4.00

Items follow; give pIC50 for each.
1. CC[C@H]1Cc2c(F)cc(C(=O)NO)cc2CN1CC1CCCCC1 (single isomer, unassigned) [Compound 518]
2. CN1CC[C@]2(CC[C@H](N3CCc4cc(C(=O)NO)cc(F)c4C3)C2)C1 (single isomer, unassigned) [Compound 403]

1. 5.00 to 6.00
2. 4.00 to 5.00

Items follow; give pIC50 for each.
1. O=C(NO)c1ccc2c(c1)C[C@@H]1COCCN1C2 [Compound 131]
2. O=C(NO)c1cc(F)c2c(c1)C[C@@H]1CCC3(CCCCC3)CN1C2 (single isomer, unassigned) [Compound 137]
3. CC(=O)N1CCCCC12CC(N1CCc3cc(C(=O)NO)cc(F)c3C1)C2 (stereo not shown) [Compound 355]
4. O=C(NO)c1cc(F)c2c(c1)CCN(C1CC3(CCCO3)C1)C2 (single isomer, unassigned) [Compound 190]
5. O=C(NO)c1ccc2c(c1)C[C@H]1CCCN1C2 [Compound 122]
6. Cc1cc2c(cc1C(=O)NO)CCN(C1CC3(CCCCC3)C1)C2
7. O=C(NO)c1cc(F)c2c(c1)C[C@@H]1CCCCN1C2 [Compound 93]
8. O=C(NO)c1cc(F)c(CN2C3CCC2CC(=NO)C3)cc1F [Compound 54]

1: 5.00 to 6.00; 2: 4.00 to 5.00; 3: 4.00 to 5.00; 4: 5.00 to 6.00; 5: 5.00 to 6.00; 6: 4.00 to 5.00; 7: 5.00 to 6.00; 8: 6.00 to 7.00

Items follow; give pIC50 for each.
1. CN1CCC2(CCC(N3CCc4cc(C(=O)NO)cc(F)c4C3)C2)CC1 (stereo not shown) [Compound 417]
2. O=C(NO)c1ccc2c(c1)CN1CCCC[C@@H]1C2 [Compound 143]
3. O=C(NO)c1cc(F)c2c(c1)CN(C[C@@H]1CCCCO1)CC2 (single isomer, unassigned) [Compound 214]
4. O=C(NO)c1cc(F)c2c(c1)CCN([C@@H]1CCC3(CCCC3)C1)C2 (single isomer, unassigned) [Compound 184]
5. O=C(NO)c1cc(F)c2c(c1)CCN([C@@H]1CC[C@@]13CCOC3)C2 (single isomer, unassigned) [Compound 317]
6. C[C@@H]1C[C@H]2c3c(F)cc(C(=O)NO)cc3CCN2C1 (single isomer, unassigned) [Compound 152]

1. 4.00 to 5.00
2. 5.00 to 6.00
3. 5.00 to 6.00
4. 5.00 to 6.00
5. 4.00 to 5.00
6. 5.00 to 6.00

Items follow; give pIC50 for each.
1. O=C(NO)c1cc(F)c2c(c1)CCN(C1CC3(CCNCC3)C1)C2 [Compound 197]
2. O=C(NO)c1ccc2c(c1)C[C@H]1COCC(=O)N1C2 (single isomer, unassigned) [Compound 134]
3. CN1CC2CC(C1)C2CN1CCc2cc(C(=O)NO)cc(F)c2C1 (stereo not shown) [Compound 463]
4. CC[C@@H]1Cc2c(F)cc(C(=O)NO)cc2CN1CC12CC(NC)(C1)C2 (single isomer, unassigned) [Compound 524]
5. CC[C@@H]1Cc2c(F)cc(C(=O)NO)cc2CN1C1CC2(C1)CN(C)C2 (single isomer, unassigned) [Compound 584]
6. O=C(NO)c1cc(F)c2c(c1)C[C@H]1CC3(CCCCC3)CN1C2 (single isomer, unassigned) [Compound 135]
7. CN1CCC2(CCC2N2CCc3cc(C(=O)NO)cc(F)c3C2)CC1 (stereo not shown) [Compound 358]
8. O=C(NO)c1cc(F)c2c(c1)CCN(C1CCOC3(CCC3)C1)C2 (single isomer, unassigned) [Compound 446]

["4.00 to 5.00", "5.00 to 6.00", "4.00 to 5.00", "5.00 to 6.00", "4.00 to 5.00", "5.00 to 6.00", "5.00 to 6.00", "4.00 to 5.00"]

Items follow; give pIC50 for each.
1. CN1CC2(CN3CCc4cc(C(=O)NO)cc(F)c4C3)CC1C2 [Compound 490]
2. CC1(C)C[C@@H]2Cc3cc(C(=O)NO)cc(F)c3CN2C1 [Compound 126]
3. CC[C@H]1Cc2c(F)cc(C(=O)NO)cc2CN1CC12CC3CC(CC(C3)O1)C2 (single isomer, unassigned) [Compound 510]
4. CC[C@@H]1Cc2c(F)cc(C(=O)NO)cc2CN1C[C@H]1C[C@H]2CC[C@@H](C1)N2C (single isomer, unassigned) [Compound 572]
5. O=C(NO)c1cc(F)c2c(c1)CCN([C@H]1CCOC3(CCC3)C1)C2 (single isomer, unassigned) [Compound 445]
6. CN1CCC[C@@]2(CC[C@@H]2N2CCc3cc(C(=O)NO)cc(F)c3C2)C1 (single isomer, unassigned) [Compound 364]

1: 5.00 to 6.00; 2: 5.00 to 6.00; 3: 5.00 to 6.00; 4: 5.00 to 6.00; 5: 4.00 to 5.00; 6: 4.00 to 5.00
